molecular target: VDR (Homo sapiens); test: VDRE-luciferase reporter assay in HaCaT cells
ENDPOINT NAME: EC50 (nM)

Sample answers from the record:
C=C1/C(=C\C=C2/CCC[C@@]3(C)[C@H]2CC[C@@H]3[C@@](C)(O)CCC=C(C)C)C[C@@H](O)C[C@@H]1O [compound 5] :: 198
C=C1/C(=C\C=C2/CCC[C@@]3(C)[C@H]2CC[C@@H]3[C@@](C)(O)CCOC(C)C)C[C@@H](O)C[C@@H]1O [compound 14] :: 226

[1] C=C1/C(=C\C=C2/CCC[C@@]3(C)[C@H]2CC[C@@H]3[C@@](C)(O)CCC(F)(F)C(C)C)C[C@@H](O)C[C@@H]1O [compound 24]
[2] C=C1CC[C@H](O)C/C1=C/C=C1\CCC[C@@]2(C)[C@H]1CC[C@@H]2[C@@](C)(O)CCC=C(C)C [compound 4]
Ask: Which record would sort first by descending EC50, 1 or 2 ? Field: selected label. Fill in the label of the entry you choose.
Result: 2

====

Target: VDR (Homo sapiens)
Sequence (P11473 1-427): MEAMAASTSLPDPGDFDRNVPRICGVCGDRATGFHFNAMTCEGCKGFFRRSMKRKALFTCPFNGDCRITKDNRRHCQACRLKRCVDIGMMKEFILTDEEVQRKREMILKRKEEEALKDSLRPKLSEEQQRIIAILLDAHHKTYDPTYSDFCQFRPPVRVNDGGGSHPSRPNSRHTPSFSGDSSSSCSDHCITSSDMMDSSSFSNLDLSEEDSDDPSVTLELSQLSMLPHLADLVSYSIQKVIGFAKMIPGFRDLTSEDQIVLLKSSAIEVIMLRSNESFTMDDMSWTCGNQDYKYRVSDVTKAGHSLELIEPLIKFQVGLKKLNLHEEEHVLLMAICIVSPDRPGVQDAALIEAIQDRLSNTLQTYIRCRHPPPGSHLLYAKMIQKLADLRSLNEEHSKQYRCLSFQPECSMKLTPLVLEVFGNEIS
Experiment: VDRE-luciferase reporter assay in Jurkat cells
Conditions: read-out: VDRE stimulation (EC50 ± SD, nM) Jurkat; Jurkat cells, 24 h; NS: no significance
ENDPOINT NAME: EC50 (nM)
Unit nM implied. Number only.

// EC50 value for C=C1/C(=C\C=C2/CCC[C@]3(C)[C@@H]([C@H](C)OCCC(C)(C)O)CC[C@@H]23)C[C@@H](O)C[C@@H]1O [22-Oxa, reference compound] : 2.9

====

biological target: mouse CYP27B1 (Mus musculus); construct: made in house; host or cells: E. coli; assay: Metabolism (1α-hydroxylation) of analogs by mouse CYP27B1; format: in vitro ADME; settings: 0.018 mol/mol phospholipid, 0.8 µM mouse CYP27B1, 20 min, 37 °C
Sequence (O35084 whole entry): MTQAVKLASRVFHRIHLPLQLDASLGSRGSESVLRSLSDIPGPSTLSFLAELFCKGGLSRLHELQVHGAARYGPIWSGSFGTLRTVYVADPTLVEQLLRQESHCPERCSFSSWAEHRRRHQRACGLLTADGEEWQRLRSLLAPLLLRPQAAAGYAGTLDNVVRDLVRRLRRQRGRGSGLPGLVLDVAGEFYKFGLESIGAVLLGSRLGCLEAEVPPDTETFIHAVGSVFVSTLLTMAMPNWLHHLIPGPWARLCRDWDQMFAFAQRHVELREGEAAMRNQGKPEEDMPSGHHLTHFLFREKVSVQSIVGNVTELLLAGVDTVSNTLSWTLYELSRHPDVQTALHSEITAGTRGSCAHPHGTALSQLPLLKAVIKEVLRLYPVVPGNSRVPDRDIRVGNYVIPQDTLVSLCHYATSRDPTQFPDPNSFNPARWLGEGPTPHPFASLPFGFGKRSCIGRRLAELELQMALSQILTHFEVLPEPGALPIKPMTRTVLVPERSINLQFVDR
ENDPOINT NAME: Product (% total secosteroids)

Sample answers from the record:
C=C1CC[C@H](O)C/C1=C/C=C1\CCC[C@@]2(C)[C@H]1CC[C@@H]2[C@@](C)(O)CCC(F)(F)C(C)C :: 57.1
C=C1CC[C@H](O)C/C1=C/C=C1\CCC[C@]2(C)[C@@H](C(C)(O)CC(=O)NC(C)C)CC[C@@H]12 (some centres unmarked) :: 0

[I] C=C1CC[C@H](O)C/C1=C/C=C1\CCC[C@@]2(C)[C@H]1CC[C@@H]2[C@@](C)(O)CCC=C(C)C
[II] C=C1CC[C@H](O)C/C1=C/C=C1\CCC[C@@]2(C)[C@H]1CC[C@@H]2[C@@](C)(O)CCCC(C)C [20S(OH)D3, 20S-hydroxyvitamin D3]
[III] C=C1CC[C@H](O)C/C1=C/C=C1\CCC[C@]2(C)[C@@H]([C@H](C)CCCC(C)(C)O)CC[C@@H]12 [25(OH)D3, 25-hydroxyvitamin D3, reference compound]
Ask: Ordering criterion: Product (% total secosteroids); begin with the maximum. In your reply, arrange the labels in the requested order.
Result: III, I, II

All figures here come from paper PMC5784132.
